Data credit: ChEMBL document CHEMBL3272085

organism: Rattus norvegicus; assay: Thyroxine-like activity in rat by antigoiter assay relative to control; assay type: functional
quantity.measured: log(activity)
Give the value as a plain number.

Solved cases (5 shown):
> print(dat)
                                smiles.code  quantity.measured  assay.result
1  N[C@@H](Cc1cc(Br)c(Oc2ccc(O)c(Br)c2)c(Br)c1)C(=O)O      log(activity)          1.64
2  N[C@@H](Cc1cc(I)c(Oc2ccc(O)cc2)c(I)c1)C(=O)O      log(activity)             1
3  N[C@@H](Cc1cc(I)c(Oc2ccc(O)c(Br)c2)c(I)c1)C(=O)O      log(activity)          2.14
4  N[C@@H](Cc1cc(Cl)c(Oc2cc(I)c(O)c(I)c2)c(Cl)c1)C(=O)O      log(activity)            -1
5  N[C@@H](Cc1cc(I)c(Oc2cc(F)c(O)c(F)c2)c(I)c1)C(=O)O      log(activity)          0.26

Field log(activity) (entry N[C@@H](Cc1cc(I)c(Oc2ccc(O)c(O)c2)c(I)c1)C(=O)O ) reads 0.18

The compound listed as N[C@@H](Cc1cc(I)c(Oc2ccc(O)c(F)c2)c(I)c1)C(=O)O has a reported log(activity) of 0.9
